Attribution: ChEMBL document CHEMBL1158306

test: Toxicity in brine shrimp larvae; assay type: organism-based; details: artemia, in vivo
quantity: LC50 (µg/mL)
Use µg/mL as the unit, but write only the number.

CCCCCCCCCCCCCC[C@@H](O)[C@H](O)CC[C@H](O)[C@@H]1CC[C@@H](CCCCC[C@H](Cl)CC2=C[C@H](C)OC2=O)O1 :: 54.6
CCCCCCCCCCCCCCC(Cl)[C@@H]1CC[C@H]([C@@H]2CC[C@@H](CCCCC[C@H](Cl)CC3=C[C@H](C)OC3=O)O2)O1 (stereo partly drawn) :: 31.9

Okay, now this compound:
Q) Would you mind telling me what LC50 value was observed for CCCCCCCCCCCCCC[C@@H](O)[C@H](O)CC[C@H](O)[C@@H]1CC[C@@H](CCCCC[C@@H](O)CC2=C[C@H](C)OC2=O)O1 ?
A) 2.6

* * *

tested on: A549; assay: Cytotoxicity against human A549 cells after 7 days by MTT assay; assay type: functional; conditions: A549, 168 h, read-out: ED50 (the source's name)
Consider the following compounds and their measured EC50 readings.
Use µg/mL as the unit, but write only the number.

CCCCCCCCCCCCCC[C@@H](O)[C@H](O)CC[C@H](O)[C@@H]1CC[C@@H](CCCCC[C@@H](O)CC2=C[C@H](C)OC2=O)O1 :: 0.25
COc1cccc2c1C(=O)c1c(O)c3c(c(O)c1C2=O)C[C@@](O)(C(=O)CO)C[C@@H]3O[C@H]1C[C@H](N)[C@H](O)[C@H](C)O1 :: 0.0243

Okay, now this compound:
Q) Would you mind telling me what EC50 value was observed for CCCCCCCCCCCCCCC(Cl)[C@@H]1CC[C@H]([C@@H]2CC[C@@H](CCCCC[C@H](Cl)CC3=C[C@H](C)OC3=O)O2)O1 (some centres undefined) ?
A) 2.39

* * *

test system: HT-29; assay: Cytotoxicity against human HT29 cells after 7 days by MTT assay; format: functional; settings: Homo sapiens, HT-29, 168 h; read-out: ED50 (the source's name)
Consider the following compounds and their measured EC50 readings.
Use µg/mL as the unit, but write only the number.

COc1cccc2c1C(=O)c1c(O)c3c(c(O)c1C2=O)C[C@@](O)(C(=O)CO)C[C@@H]3O[C@H]1C[C@H](N)[C@H](O)[C@H](C)O1 :: 0.0346

Q) Would you mind telling me what EC50 value was observed for CCCCCCCCCCCCCC[C@@H](O)[C@H](O)CC[C@H](O)[C@@H]1CC[C@@H](CCCCC[C@H](Cl)CC2=C[C@H](C)OC2=O)O1 ?
A) 0.38

Q) Would you mind telling me what EC50 value was observed for CCCCCCCCCCCCCC[C@H](O)[C@@H]1CC[C@@H]([C@@H]2CC[C@@H](CCCCC[C@@H](O)CC3=C[C@H](C)OC3=O)O2)O1 ?
A) 0.063
